# Kd listing for each entry below
Target: SARS-COV-2 Delta RBD (SARS-COV-2, UniProt P0DTC2 319-541)
Unit nM implied. Number only.

{"Binder": "AP1C3 Nb-huFc (Fc fusion) EVQLQASGGGFVQPGGSLRLSCAASGRTYRGYSMGWFRQAPGKEREFVSAISSWSDDWTAYADSVKGRFTISRDNSKNTVYLQMNSLRAEDTATYYCAWQYIDEIQYYWGQGTQVTVSS", "Measured metric": "Kd", "Readout number": 33.3}
{"Binder": "KP2C6 Nb-huFc (Fc fusion) EVQLQASGGGFVQPGGSLRLSCAASGRTFTSFHMGWFRQAPGKEREFVSAISSGDDGTQYYADSVKGRFTISRDNSKNTVYLQMNSLRAEDTATYYCAAYTTTTVPQYWGQGTQVTVSS", "Measured metric": "Kd", "Readout number": 62.6}
{"Binder": "DP4F2 Nb-huFc (Fc fusion) EVQLQASGGGFVQPGGSLRLSCAASGTTYSERVMGWFRQAPGKEREFVSAISSGQSDQTYYYADSVKGRFTISRDNSKNTVYLQMNSLRAEDTATYYCAPFAGDANLPREWYWGQGTQVTVSSA", "Measured metric": "Kd", "Readout number": 1.91}

Next:
Kd lookup needed for KP1C9 Nb-huFc (Fc fusion) EVQLQASGGGFVQPGGSLRLSCAASGRTFDAYSMGWFRQAPGKEREFVSAISSWSDDWTAYADSVKGRFTISRDNSKNTVYLQMNSLRAEDTATYYCALQNTKEDRLYWGQGTQVTVSS , thanks.
25.5

Where these numbers come from: patent US12091446
